Value source: ChEMBL document CHEMBL3433997

// inhibition lookup, one value per entry
target: Glucose transporter (Leishmania mexicana) (UniProt O61059); experiment: ST_JUDE_LEISH: Cytotoxicity at 2uM final concentration against transgenic Leishmania Mexicana promastigotes LmGT2 that are glucose transport deficient and complemented with the L. Mexicana glucose transporter 2. Activity is measured by DNA content using SYBR green in vitro; format: functional

- compound: "Cc1cccc2nc(-c3ccc(-c4ccc(NC(=O)C(C)CN5CCN(C)CC5)cc4)s3)[nH]c12 (centres undefined)"
  systemUnderTest: "Glucose transporter (Leishmania mexicana) (UniProt O61059)"
  inhibition (%): 2.29
- compound: "CN(C)c1ccc(C2(c3ccccc3)N=C(N)N(CCCc3ccccc3)C2=O)cc1 (centres undefined)"
  systemUnderTest: "Glucose transporter (Leishmania mexicana) (UniProt O61059)"
  inhibition (%): 0.65
- compound: "COc1ccc(CCn2c(=N)c(C(=O)NCc3ccccc3)cc3c(=O)n4cccc(C)c4nc32)cc1"
  systemUnderTest: "Glucose transporter (Leishmania mexicana) (UniProt O61059)"
  inhibition (%): 7.48
- compound: "CC1(C)NC(N)=NC(=N)N1OCc1ccc2ccccc2c1CON1C(=N)N=C(N)NC1(C)C"
  systemUnderTest: "Glucose transporter (Leishmania mexicana) (UniProt O61059)"
  inhibition (%): 3.06
- compound: "O=C(c1cccc(-c2cccc(-c3nc4cc(C(F)(F)F)ccc4[nH]3)c2)c1)N1CCCCC1CN1CCC(O)C1 (centres undefined)"
  systemUnderTest: "Glucose transporter (Leishmania mexicana) (UniProt O61059)"
  inhibition (%): -1.32
- compound: "CCN(CC)CCNC(=O)c1ccc(NC(=O)c2oc3c(Cl)cccc3c2C)cc1"
  systemUnderTest: "Glucose transporter (Leishmania mexicana) (UniProt O61059)"
  inhibition (%): 7.44
- compound: "COc1ccc2nccc(N(C)CC3(O)CCC(NCc4ccc5c(n4)NC(=O)CS5)CC3)c2n1 (centres undefined)"
  systemUnderTest: "Glucose transporter (Leishmania mexicana) (UniProt O61059)"
  inhibition (%): 1.23
- compound: "CN(C)c1cccc2c(S(=O)(=O)Nc3cccc(CCN4CCC(N5CCCCC5)CC4)c3)cccc12"
  systemUnderTest: "Glucose transporter (Leishmania mexicana) (UniProt O61059)"
  inhibition (%): -0.34
- compound: "Cc1ccccc1C1CCN(C2CCC(NC(=O)/C=C/c3cccc(F)c3F)CC2)CC1 (centres undefined)"
  systemUnderTest: "Glucose transporter (Leishmania mexicana) (UniProt O61059)"
  inhibition (%): 6.25
- compound: "O=C(c1ccc(Br)o1)N1N=C(c2cccs2)CC1c1ccc(Br)cc1 (centres undefined)"
  systemUnderTest: "Glucose transporter (Leishmania mexicana) (UniProt O61059)"
  inhibition (%): 3.94
- compound: "CN1CCC(C(=O)N(Cc2ccc(-c3ccc(CNCCc4ccc(S(C)(=O)=O)cc4)cn3)cc2)Cc2cccc(F)c2)CC1"
  systemUnderTest: "Glucose transporter (Leishmania mexicana) (UniProt O61059)"
  inhibition (%): 0.97
- compound: "CC(C)[C@H](NC(=O)c1ccc(O)c(-c2ccc(Cl)c(Cl)c2)c1)C(=O)NC1CCCCCC1"
  systemUnderTest: "Glucose transporter (Leishmania mexicana) (UniProt O61059)"
  inhibition (%): -4.76
- compound: "Cc1cccc2nc(-c3ccc(-c4cccc(NC(=O)c5cncn5C)c4)s3)[nH]c12"
  systemUnderTest: "Glucose transporter (Leishmania mexicana) (UniProt O61059)"
  inhibition (%): -2.47
- compound: "CC(=O)c1ccc(Nc2c(C(N)=O)cnc3cc(-c4c(C)noc4C)ccc23)cc1"
  systemUnderTest: "Glucose transporter (Leishmania mexicana) (UniProt O61059)"
  inhibition (%): 5.76
- compound: "COc1ccc(CNC(=O)Nc2cc3cc(-c4ccc(CN(C)C)cc4)ccc3n3c(C)nnc23)cc1"
  systemUnderTest: "Glucose transporter (Leishmania mexicana) (UniProt O61059)"
  inhibition (%): 3.32
- compound: "Oc1ccccc1CN(CCCN(Cc1ccccn1)Cc1ccccc1O)Cc1ccccn1"
  systemUnderTest: "Glucose transporter (Leishmania mexicana) (UniProt O61059)"
  inhibition (%): 4.96
- compound: "Cc1cc(C2CCN(CCCCNC(=O)c3ccc(NC(=O)c4ccc(Cl)cc4)cc3)CC2)c(C)cc1OC(C)C"
  systemUnderTest: "Glucose transporter (Leishmania mexicana) (UniProt O61059)"
  inhibition (%): -1.68
- compound: "CCCNCc1ccc(-c2ccc(CN(CCOC)C(=O)CC3CCCC3=O)cc2)nc1 (centres undefined)"
  systemUnderTest: "Glucose transporter (Leishmania mexicana) (UniProt O61059)"
  inhibition (%): -9.43
- compound: "CC(=O)NCCNc1cc(N2CCc3ncnc(Nc4ccc(OCc5c(F)cccc5F)c(Cl)c4)c3C2)ncn1"
  systemUnderTest: "Glucose transporter (Leishmania mexicana) (UniProt O61059)"
  inhibition (%): 1.84

###

target: Solute carrier family 2, facilitated glucose transporter member 1 (Homo sapiens) (UniProt P11166); experiment: ST_JUDE_LEISH: Cytotoxicity at 2uM final concentration against transgenic Leishmania Mexicana promastigotes LmGLUT1 that are glucose transport deficient and complemented with the human glucose transporter GLUT1. Activity is measured by DNA content using SYBR green in vitro; assay type: functional
Sequence (P11166 whole entry): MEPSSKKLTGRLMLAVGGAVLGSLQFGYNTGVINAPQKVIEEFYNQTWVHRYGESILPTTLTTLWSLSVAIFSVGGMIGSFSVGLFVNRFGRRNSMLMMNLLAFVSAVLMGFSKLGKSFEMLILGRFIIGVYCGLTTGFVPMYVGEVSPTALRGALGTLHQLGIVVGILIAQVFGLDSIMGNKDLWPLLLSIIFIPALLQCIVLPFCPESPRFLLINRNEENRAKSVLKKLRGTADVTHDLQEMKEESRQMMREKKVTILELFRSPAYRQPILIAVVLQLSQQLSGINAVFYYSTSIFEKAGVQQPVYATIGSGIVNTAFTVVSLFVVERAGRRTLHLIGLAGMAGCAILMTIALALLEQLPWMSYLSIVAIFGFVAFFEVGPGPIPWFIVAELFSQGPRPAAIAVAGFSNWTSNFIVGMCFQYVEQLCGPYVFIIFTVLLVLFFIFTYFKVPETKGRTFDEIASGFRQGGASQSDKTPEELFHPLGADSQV

- compound: "COc1ccc(-c2cccc(NC(=O)c3ccc(Cl)cc3)c2)cc1CN(C)CCN(C)C"
  inhibition (%): 3.16
- compound: "c1ccc2c(c1)CN(CC1CCOCC1)CC1(CCN(Cc3c[nH]c4cnccc34)CC1)O2"
  inhibition (%): 0.57
- compound: "COc1ccc2[nH]ccc(=NN=Cc3ccccc3F)c2c1"
  inhibition (%): 7.58
- compound: "CN(C)c1cccc2c1nc(-c1ccc3c(c1)CCO3)n2CCNCc1ccccc1"
  inhibition (%): 11.7
- compound: "Cc1ccc(Nc2nc(N)c3ccccc3n2)cc1"
  inhibition (%): 22
- compound: "CC(C)c1cn2c3c(cc(C(=O)N[C@@H](Cc4ccccc4)[C@H](O)CNC4CCCCC4)cc13)N(C)S(=O)(=O)CC2"
  inhibition (%): -1.18
- compound: "Cc1nc(C)c(-c2ccc(C(=O)c3ccccc3)cc2)c(O)c1Br"
  inhibition (%): 5.44
- compound: "OCC(c1ccccc1)n1c(COc2ccc(Cl)cc2)nc2c(OCCCN3CCCCC3)cccc21 (centres undefined)"
  inhibition (%): 12.9
- compound: "COc1cc(C(=O)N2CCOC(CCN3CCC(Cc4ccc(F)cc4)CC3)(c3ccc(Cl)c(Cl)c3)C2)cc(OC)c1OC (centres undefined)"
  inhibition (%): 5.79

###

target: Hexose transporter 1 (Plasmodium falciparum) (UniProt O97467); assay: ST_JUDE_LEISH: Cytotoxicity at 2uM final concentration against transgenic Leishmania Mexicana promastigotes LmPfHT that are glucose transport deficient and complemented with the Plasmodium falciparum hexose transporter. Activity is measured by DNA content using SYBR green in vitro; assay type: functional

- molecule: "CCCc1c(C(=O)Nc2ccc3c(c2)CCN(C2CCC2)CC3)cnn1-c1ccc(Cl)cc1"
  inhibition / %: 4.4
- molecule: "Cc1ccc2[nH]c3c(NCCCN(C)C)ncnc3c2c1"
  inhibition / %: -0.22
- molecule: "CC(=O)c1cccc(S(=O)(=O)NCCCNc2nc3cc(C)cc(C)c3cc2C#N)c1"
  inhibition / %: 1.78
- molecule: "Cc1cccc(C)c1C1CCN(C2CCC(NC(=O)/C=C/c3ccccc3)CC2)CC1 (stereo not given)"
  inhibition / %: 5.67
- molecule: "Cc1cc(=O)c(-c2ccc(Oc3cccc(OC(F)(F)F)c3)cc2)c(C)[nH]1"
  inhibition / %: 1.17
- molecule: "CN1CCC(Oc2ccc(NC(=O)c3ccc4c(=O)n(Cc5ccccc5)cnc4c3)cc2Cl)CC1"
  inhibition / %: 57.4
- molecule: "O=C1CSc2ccc(CNC3CCN(CCc4c(Cl)cnc5ccc(F)cc45)CC3)nc2N1"
  inhibition / %: 1.12
- molecule: "CCN(CCNS(C)(=O)=O)c1ccc(N)c(C)c1"
  inhibition / %: 1.06
- molecule: "Cc1cc(-c2nc3cncc(-c4cccc(CN5CCCC5Cc5cccnc5)c4)c3n2C)nn1C (stereo not given)"
  inhibition / %: -2.01
- molecule: "C[C@@H](C(=O)N1CCOCC1)N1CC[C@H](NS(=O)(=O)c2ccc3ccnc(N)c3c2)C1=O"
  inhibition / %: -1.24

###

// inhibition lookup, one value per entry
target: Solute carrier family 2, facilitated glucose transporter member 1 (Homo sapiens) (UniProt P11166); experiment: ST_JUDE_LEISH: Cytotoxicity at 2uM final concentration against transgenic Leishmania Mexicana promastigotes LmGLUT1 that are glucose transport deficient and complemented with the human glucose transporter GLUT1. Activity is measured by DNA content using SYBR green in vitro; assay type: functional

- compound: "CCCCCCCCCc1c(C)[nH]c2ccccc2c1=O"
  unitOfMeasure: "%"
  inhibition: -1.28
- compound: "COc1cc2c(Nc3cccc(NC(=O)c4ccccc4)c3)ncnc2cc1OCCCN1CCOCC1"
  unitOfMeasure: "%"
  inhibition: 0.63
- compound: "N#Cc1ccc(CN2CCC(Oc3ccc(NC(=O)c4cccs4)cc3Cl)CC2)cc1"
  unitOfMeasure: "%"
  inhibition: 5
- compound: "CC(C)C[C@@H](NC(=O)NC1CCC(CCN2C3CCC2CC(OC(=O)C(CO)c2ccccc2)C3)CC1)C(O)(c1ccccc1)c1ccccc1 (some centres undefined)"
  unitOfMeasure: "%"
  inhibition: 3.28
- compound: "O=S(=O)(c1ccc(Oc2ccccc2)cc1)N(CCC(O)(C(F)(F)F)C(F)(F)F)Cc1cccc(O)c1"
  unitOfMeasure: "%"
  inhibition: -1.44
- compound: "COc1ccc(CCNCc2cc3c(C(C)(C)C)nn(-c4ccc(Cl)cc4)c3[nH]c2=O)cc1OC"
  unitOfMeasure: "%"
  inhibition: -2.79
- compound: "COc1ccc(CNCCc2cccs2)cc1-c1ccc(S(=O)(=O)NCCN2CCCC2)s1"
  unitOfMeasure: "%"
  inhibition: 4.99
- compound: "CS(=O)(=O)N1CC2(CCN(CCC(NC(=O)/C=C/c3ccccc3)c3ccc(Cl)c(Cl)c3)CC2)c2ccccc21 (centres undefined)"
  unitOfMeasure: "%"
  inhibition: 2.11
- compound: "O=C(NCc1cccc(C(F)(F)F)c1)C1CCCN(C(=O)c2ccc(O)c(-c3ccc(Cl)c(Cl)c3)c2)C1 (centres undefined)"
  unitOfMeasure: "%"
  inhibition: 3.46
- compound: "Cc1nc2c(s1)c(=O)cc(CCc1cccc(F)c1F)n2CC(=O)N(Cc1ccc(-c2ccc(C(F)(F)F)cc2)cc1)C1CCN(C(C)C)CC1"
  unitOfMeasure: "%"
  inhibition: 1.07
- compound: "COc1ccc2nccc([C@@H](O)CN3CCC(NCc4ccc5nnsc5c4)CC3)c2c1"
  unitOfMeasure: "%"
  inhibition: -1.03
- compound: "CC(=O)Nc1cccc(CNc2cc(C)nc(Nc3ccc(C)cc3)n2)c1"
  unitOfMeasure: "%"
  inhibition: 9.07
- compound: "Cc1nc2ccc3ccc(CNc4ccc(C(=O)N[C@@H](CCC(=O)O)C(=O)N[C@@H](Cc5cccs5)C(=O)O)c(F)c4)cc3c2c(=O)[nH]1"
  unitOfMeasure: "%"
  inhibition: 6.55
- compound: "Cc1[nH]c(C)c(-c2ccc(Oc3ccc(C(F)(F)F)cc3)cc2)c(=O)c1Br"
  unitOfMeasure: "%"
  inhibition: 3.22
- compound: "Fc1ccc2[nH]c3c(NCCCN4CCOCC4)ncnc3c2c1"
  unitOfMeasure: "%"
  inhibition: 1.79
- compound: "Cc1cc(O)c(-c2ccc(OCc3ccc(Cl)cc3)cc2)c(C)n1"
  unitOfMeasure: "%"
  inhibition: 0.84
- compound: "C[C@H](Cc1ccc(Oc2ccc(C[C@@H](C)NC[C@H](O)c3cccc(Cl)c3)cc2)cc1)NC[C@H](O)c1cccc(Cl)c1"
  unitOfMeasure: "%"
  inhibition: 106
- compound: "CC(=O)c1cccc(NC(=O)NC2CCN(c3ccnc(Nc4ccc(F)cc4)n3)C2)c1 (centres undefined)"
  unitOfMeasure: "%"
  inhibition: -1.36
- compound: "Cc1cc(C)n(Cc2ccc(C(=O)NCC3CCCCC3)cc2)n1"
  unitOfMeasure: "%"
  inhibition: 4.03
